Each item that follows carries a reported Binding Signal (fold over 6E7 Parental antibody).
tested.on: T1, human TREM2 (human, UniProt Q9NZC2 19-174, limits assumed)
T1 construct: also called triggering receptor expressed on myeloid cells 2
T1 sequence: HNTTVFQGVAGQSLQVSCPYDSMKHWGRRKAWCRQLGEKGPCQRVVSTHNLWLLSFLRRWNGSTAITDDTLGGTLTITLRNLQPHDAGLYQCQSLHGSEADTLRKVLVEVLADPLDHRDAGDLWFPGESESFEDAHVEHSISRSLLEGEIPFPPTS
measurement.protocol: 2nd screen 10 nM
I only need the number, in fold, no unit after it.

V53 (antibody, V domains shown) VH: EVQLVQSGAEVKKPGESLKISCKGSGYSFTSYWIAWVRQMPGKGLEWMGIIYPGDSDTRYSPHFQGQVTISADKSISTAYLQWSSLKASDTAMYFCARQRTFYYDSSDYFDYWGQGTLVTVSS VL: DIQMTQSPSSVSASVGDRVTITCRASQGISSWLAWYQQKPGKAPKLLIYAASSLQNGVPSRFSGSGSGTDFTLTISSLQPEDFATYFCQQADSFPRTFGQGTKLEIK | 1.17

Now look at this entry.
Request: Data request, read-out Binding Signal (fold over 6E7 Parental antibody), for V61 (antibody, V domains shown) VH: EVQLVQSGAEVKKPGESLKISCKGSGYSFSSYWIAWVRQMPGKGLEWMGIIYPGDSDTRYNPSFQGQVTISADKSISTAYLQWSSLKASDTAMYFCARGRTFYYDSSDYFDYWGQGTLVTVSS VL: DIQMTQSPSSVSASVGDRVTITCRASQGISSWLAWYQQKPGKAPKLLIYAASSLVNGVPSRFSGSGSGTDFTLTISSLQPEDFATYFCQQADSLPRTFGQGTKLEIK
Result: 5.22
